The reported numbers originate from paper PMC7252619.

Examples of molecules with documented remaining activity at 1 µM follow.
# System: UniProt:P35968
# Sequence (P35968 20-1356): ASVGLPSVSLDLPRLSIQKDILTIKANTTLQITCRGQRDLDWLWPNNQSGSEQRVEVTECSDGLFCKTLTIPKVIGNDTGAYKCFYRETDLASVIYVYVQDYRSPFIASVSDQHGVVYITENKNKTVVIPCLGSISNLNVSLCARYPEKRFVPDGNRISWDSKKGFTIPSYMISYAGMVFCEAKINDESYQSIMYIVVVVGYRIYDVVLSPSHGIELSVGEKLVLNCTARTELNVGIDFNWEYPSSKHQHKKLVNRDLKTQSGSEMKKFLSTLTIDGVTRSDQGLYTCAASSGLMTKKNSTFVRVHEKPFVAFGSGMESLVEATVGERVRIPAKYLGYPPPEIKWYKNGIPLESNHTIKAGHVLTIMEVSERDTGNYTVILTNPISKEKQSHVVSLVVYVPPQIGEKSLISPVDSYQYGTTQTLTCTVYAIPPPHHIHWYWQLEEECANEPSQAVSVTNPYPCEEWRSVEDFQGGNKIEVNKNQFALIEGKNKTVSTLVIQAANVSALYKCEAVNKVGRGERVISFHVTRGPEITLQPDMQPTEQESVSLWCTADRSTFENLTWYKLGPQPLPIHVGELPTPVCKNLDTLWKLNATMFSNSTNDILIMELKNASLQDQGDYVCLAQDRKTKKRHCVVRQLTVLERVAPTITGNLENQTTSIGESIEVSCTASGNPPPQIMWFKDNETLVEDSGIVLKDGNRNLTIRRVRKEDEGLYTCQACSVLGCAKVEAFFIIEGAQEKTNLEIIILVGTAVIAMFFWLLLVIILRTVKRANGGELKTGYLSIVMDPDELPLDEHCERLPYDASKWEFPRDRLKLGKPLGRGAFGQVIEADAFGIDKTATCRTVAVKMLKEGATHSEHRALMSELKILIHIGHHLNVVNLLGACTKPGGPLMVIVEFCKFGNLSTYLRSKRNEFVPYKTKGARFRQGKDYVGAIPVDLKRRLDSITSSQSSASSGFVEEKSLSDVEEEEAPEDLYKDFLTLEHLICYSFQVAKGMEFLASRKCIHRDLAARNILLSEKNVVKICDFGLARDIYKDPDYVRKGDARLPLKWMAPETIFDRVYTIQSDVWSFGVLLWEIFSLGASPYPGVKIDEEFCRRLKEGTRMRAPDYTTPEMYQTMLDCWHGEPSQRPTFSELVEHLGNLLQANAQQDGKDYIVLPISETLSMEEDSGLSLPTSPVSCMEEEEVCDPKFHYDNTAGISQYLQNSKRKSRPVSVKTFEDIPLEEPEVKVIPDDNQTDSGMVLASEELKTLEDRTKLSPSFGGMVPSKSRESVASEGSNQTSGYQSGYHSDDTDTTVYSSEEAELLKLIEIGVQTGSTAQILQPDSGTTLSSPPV
# Method Notes: Kinase activity test (ReactionBiology), % enzyme activity relative to DMSO;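 also: VEGFR2 was one member of a ten-kinase screening panel testing marketed FDA-approved drugs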
# Type: biochemical
# Parameters: purchased ReactionBiology
# Conditions: VEGFR2; 1 uM; replicate Data 2; read-out: % Enzyme Activity (relative to DMSO controls), Data 2
Experimental Endpoint: remaining activity at 1 µM (%)

>>> recorded_result("NC(=O)c1cccnc1 [Niacinamide, reference compound]")
95.4
>>> recorded_result("CS(=O)(=O)c1ccc(C(=O)Nc2ccc(Cl)c(-c3ccccn3)c2)c(Cl)c1 [Vismodegib]")
103
>>> recorded_result("Cc1ccc(C(=O)Nc2ccc(S(=O)(=O)O)c3cc(S(=O)(=O)O)cc(S(=O)(=O)O)c23)cc1NC(=O)c1cccc(NC(=O)Nc2cccc(C(=O)Nc3cc(C(=O)Nc4ccc(S(=O)(=O)O)c5cc(S(=O)(=O)O)cc(S(=O)(=O)O)c45)ccc3C)c2)c1 [Suramin, reference compound]")
71.8
>>> recorded_result("Cc1cccc(C)c1OCC(=O)N[C@@H](Cc1ccccc1)[C@@H](O)C[C@H](Cc1ccccc1)NC(=O)[C@H](C(C)C)N1CCCNC1=O [Lopinavir, reference compound]")
103
>>> recorded_result("C=CC(=O)N1CCC[C@@H](n2nc(-c3ccc(Oc4ccccc4)cc3)c3c(N)ncnc32)C1 [Ibrutinib, reference compound]")
19.5
>>> recorded_result("N[C@@H](CC(=O)N1CCn2c(nnc2C(F)(F)F)C1)Cc1cc(F)c(F)cc1F [Sitagliptin]")
95.6
>>> recorded_result("O=C(O)c1ccccc1O [Salicylic acid]")
98.7
>>> recorded_result("Oc1cc(Cl)ccc1Oc1ccc(Cl)cc1Cl [Triclosan, reference compound]")
114
>>> recorded_result("CC(=O)O[C@H]1C[C@@]2(C)[C@@H](C[C@@H](O)[C@H]3[C@@]4(C)CC[C@@H](O)[C@@H](C)[C@@H]4CC[C@@]32C)/C1=C(\\CCC=C(C)C)C(=O)O [Fusidic acid]")
107
>>> recorded_result("C[C@]12CC[C@@H]3c4ccc(O)cc4CC[C@H]3[C@@H]1CC[C@@H]2O [Estradiol, reference compound]")
115
>>> recorded_result("Cc1cc(C#N)cc(C)c1Oc1nc(Nc2ccc(C#N)cc2)nc(N)c1Br [Etravirine, reference compound]")
108
>>> recorded_result("CC(C)c1nc(CN(C)C(=O)N[C@H](C(=O)N[C@@H](Cc2ccccc2)C[C@H](O)[C@H](Cc2ccccc2)NC(=O)OCc2cncs2)C(C)C)cs1 [Ritonavir, reference compound]")
112
>>> recorded_result("N[C@@H](Cc1cc(I)c(Oc2cc(I)c(O)c(I)c2)c(I)c1)C(=O)O [Thyroxine, reference compound]")
103
>>> recorded_result("Nc1ncnc2c1ncn2[C@@H]1O[C@H](CO)[C@@H](O)[C@H]1O [Adenosine, reference compound]")
111
